Assay: amyloid nucleation score (Sup35N fusion, yeast selection) (log enrichment); library NNK2; higher = more nucleation; inactive = no reads after selection;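 note: zero at mode of non-aggregating sequences after 7 days selection at 30°C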

SUBSTANCE	amyloid nucleation score
QWCLSNNVLWEMGVW	inactive
RRGNLGDAMNNMARFCSYSF	inactive
NWGTGQPYNRMCMVH	inactive
TSYACRVIAMRVVCPCRQLR	inactive
VSQSDMDLHWLVYRVYWYVF	-0.893
MSVTWYLGNWVTVL	-1.09
GCGSNSDLLHPGIFGLCKLV	-0.3
TPVWVGVSLVPPIAPTTWIN	0.288
YGYSIYLFTGCVKTVLFVSD	4.68
LCEALRFVIYCKLTSFVPFN	-0.632
VYLFGGIRFDR	4.04
FSIVFGI	1.17
YYIALWVVGHMGYIDGCTSC	2.45
HQMQACLVLG	5.74
KLRGIPYRF	inactive
SRLMVGGQSLVSW	5.72
NINTSYHNSPCPQYTLASMW	-0.231
FEAINMSQQCIYCFPMSRNI	7.39
MLDGTSCICVVIEA	-0.035
SLFAVQTVVEVVVHV	0.762
YVWSWVGQYCRVIAAHGIWW	0.79
TPATVEYGDNCVYDY	-0.987
LYFSNPWFMIKSRDMFVCIG	0.51
IVNSKFKHAGVHPFDSL	-0.125
SQGGIRWY	-0.842
LDLCTPRSNKTMVNHDINYF	-1.64
IVLCWLEGG	0.516

====

Assay: amyloid nucleation score (Sup35N fusion, yeast selection) (log enrichment); library NNK1; higher = more nucleation; inactive = no reads after selection

SUBSTANCE	amyloid nucleation score
FIIVEECNFRNRRLTYRLFI	0.816
IIEIFVDIRYHFMY	1.91
MLLWQRSGMQLLAGLSHRVR	-0.702
PWPVSFYFMVNIVWCGRVIL	1.06
VCGFWVWLYVGVYSSIPNSM	-0.015
NRYMWDFSIAGVGVRLWINS	-0.896
QRMFFYNIIVWNVN	2.79
GRQGYMAYFVMALLLCIFTH	0.128
HGSECSWRLLLRHPLMGTSG	-0.089
NFSRIKYYGSYEVFIFAGNY	0.398
GNWLSS	-0.082
GATIIKSFLDRNSTTWLSLV	-0.451
DWRFSGALRLSLMHTYQ	4.09

====

Assay: amyloid nucleation score (Sup35N fusion, yeast selection) (log enrichment); library NNK3; higher = more nucleation; inactive = no reads after selection

SUBSTANCE	amyloid nucleation score
CMLAQRRVTPRRYRLVSSTI	inactive
FALCFKRQIGRVSRVVCHVY	inactive
DVYISKDIRCCYLLKTFLPY	0.123
IVISEALVFASGYKQVFNSV	inactive
WVYWRKSSILSTHRNIVKHW	inactive
LLDYRPKTGNCRVQIRLCVV	inactive
VVCFLYIRSYNQGLCRSYFR	2.29
SNSFTAFVYTYPWDHLVGVL	-0.195
NLFFSVSMSAEFEW	0.078
SGSDILISYLLFCYNACLTF	inactive
VMKNSTIILSFTFLSPKVSF	2.16
LCLSTIV	inactive
MCVWVWI	2.06
RHSNMSRIPMVLNKEKPGTR	inactive
RYSGANVDNYVN	inactive
LYAYVQVIGDQA	inactive
RVLVWTFYEKAKNCAFCRGV	inactive
LVRIMYL	inactive
AGIRYTNYFSSMGSIGGDGV	inactive
IKFSYKCS	inactive
VSHTIKAILFGFRRQDHLYF	inactive
IAYKFWGSNVLDR	inactive
LISNFVWLQLRCA	inactive
IVEGHLSIIGWYEGNFPHML	0.145
TTSRNRIGRGLCGLAS	-0.115
YKWSLTTRRTVRHLRED	inactive
FSDCQLESGCCHRSRDLIGL	inactive
IPSVFKLSVWGYADSTCLRR	inactive
SNLVPMQCVIL	inactive
LCTYVFYPIANSSALSLNKV	inactive
SYCKATRSVRQSNSARVVVR	inactive
EWKVLLPNLLYPSYYAQNR	inactive
NSRLFAYKLKLVV	inactive
YFFKTQISSDGTLSTYECME	inactive
FILSAGSLHQLGRLVES	inactive
LVIASGRVIVIVCYV	inactive
RHRQSPYIINSVVIFGNQGT	2.5
MLIRYAVLALCSCGTNFTDL	inactive

====

Assay: amyloid nucleation score (Sup35N fusion, yeast selection) (log enrichment); library NNK3; higher = more nucleation; inactive = no reads after selection

SUBSTANCE	amyloid nucleation score
EVKFYWKYKGV	0.561
VGTFRGSEGPRFVLVV	-0.486
SGNDNFYVDCNWLNIIVNET	2.79
SSTMLTNIWHHPNHGVVWDR	inactive
FAMETLNSSTFRCYHQFYGF	inactive
WDSMMYNMVKDDSGLWNHVE	inactive
KVICVLFKIMKLF	0.442
SPFCYRR	inactive
SVLVDY	inactive
YRWGISLIEMEQGGVVF	inactive
KCMFMEDCPLPEWSDLEVGL	inactive
IGIINMSLN	1.19
PIVRWVSSLLYVVRWLPRLA	inactive
FAGCLGHPLERYVHLAWV	inactive
LGGLCPCF	inactive
HNNTIVASWRHDNRACA	inactive
LRPVRYRLCVRFNWMCVRCK	-0.582
RNLRYICRFALGGVARLWCG	0.197

====

Experiment: amyloid nucleation score (Sup35N fusion, yeast selection) (log enrichment); library NNK2; higher = more nucleation; inactive = no reads after selection
Use 0.8 as the dividing line for amyloid nucleation score, with the line itself on the Satisfied side and lower values as Not satisfied.

POLYMER_SEQUENCE	CAT
VGGWGWGHCPQRRQHVSLPV	Satisfied
TIGANPRVLDG	Not satisfied
VLVCSANRLCNEPTIDRVLG	Satisfied
KDSITAWCFVVLSVMTRVEY	Not satisfied
VKGVLPVLWMGFNKQHFINH	Not satisfied
NGVKGLKIMDSRSGVT	Satisfied
VYALCMGLAWKGLDYHKGER	Satisfied

====

Assay: amyloid nucleation score (Sup35N fusion, yeast selection) (log enrichment); library NNK1; higher = more nucleation; inactive = no reads after selection
This listing pairs substances with measured amyloid nucleation score.
PARAMETER: amyloid nucleation score

SUBSTANCE	ASSAY_RESULT
GYEHVKG	-0.195
YISKSCRWSRTASSNVCIFI	0.022
YSDLSVHHYFWHQFRQKCDR	2.01
WCYFVRDGVGVGEVTCPRQR	0.273
FWVFLTRKLCYSHGRVLALV	-0.708
FGSSMLDFNLDFDKWCE	3.66
HSSDLRAFLTDTFSRFYRIG	0.911
WMNFWHLFSVFLLFSAICWF	-0.006
RCLSQNYCLSLASRLEHMCI	0.572
HSVNYTLSQVNGSGLVFRAF	2.41
FNLSVKAY	-0.581
VPPASQISGPWARLSEMVSH	-1.12
CVNIRNQKQLSFAGLVDLSV	0.358
LRWMESLRLNARSFKDTLLC	-0.33
TARRKSYDIFMLIMWFVAYY	2.53
LCCFKSFVSENMN	6.45
RYAWVTMVVYACLQLGSASR	0.678
TSWFSYRLANCAFHSQGFSR	0.366
TRVKQMEVVSWTRHHWPRCF	-0.623

====

Assay: amyloid nucleation score (Sup35N fusion, yeast selection) (log enrichment); library NNK1; higher = more nucleation; inactive = no reads after selection

SUBSTANCE	amyloid nucleation score
PLSWTNMKYKGSCVYFMVFF	-2.14
AWMGLKNVN	1.59
IVFLKLWEQVGWTVIDNLGV	-0.552
VVQAVIR	-1.01
SMCLCVYIWIALYGWVMLIP	0.217
SIYYKARSEWSMASAIDGYV	0.85
WEGLQLLGS	-0.138
RILSDDDVARQNGNDDNLYP	3.22
CCIFIDFTVIALGRTLVVRH	-1.17
TSWGNVDGCYNGRTLVLLDF	-0.316
CLEFLG	-0.526
PLARRVSAHILVRMNYRNFM	-0.048
TWSCMFLYYFTLWLCTS	inactive
TWSACICKRMVLPCDFQNGS	0.808
FMSYLNYRQCPPVLDEEVVP	0.241
GTMTRWWFVVCTEKTAGTNR	0.374
SLVLDGVSTPPIDYLNLVLV	-1.26
VAATGNYIIIDNVRLVHAFG	-0.987
VLSWWTTNPSVMENTCCPWS	2.09
VMLPHHWSLNKNY	0.264
LRSSEYWSLMEVDLVMDSLP	0.629
NSINFFNMFVYWL	6.26
TMPNSFRWCLNGRVRRDRFC	-0.215
FELICNRNGNSPRYAFKKIP	0.976
WESEFYLGLELERVAGGSGG	-1.03
SWEQMSYASSFISNVGRHKG	1.34
PIEHDEWLTVMVYCDGRLLA	-0.894
INETLYRTFSRL	-0.471
CLETACRILGFCN	-0.488
FTKGNYCSGLLGSSSRWTPF	0.926
NNVAGCLEFHRYQGMCGRSM	1.04
RIVRRFAGLISSI	inactive
VRSFVHTWLDTTWA	-0.025
FYVANVACSCAFMLPITNVR	-0.461
ENRFARCYRVV	2.1
WSGFFFAGLWVVLCVEGGAC	0.192
